Value source: ChEMBL document CHEMBL1938302

System Tested: UniProt:Q9H3N8
Sequence (Q9H3N8 whole entry): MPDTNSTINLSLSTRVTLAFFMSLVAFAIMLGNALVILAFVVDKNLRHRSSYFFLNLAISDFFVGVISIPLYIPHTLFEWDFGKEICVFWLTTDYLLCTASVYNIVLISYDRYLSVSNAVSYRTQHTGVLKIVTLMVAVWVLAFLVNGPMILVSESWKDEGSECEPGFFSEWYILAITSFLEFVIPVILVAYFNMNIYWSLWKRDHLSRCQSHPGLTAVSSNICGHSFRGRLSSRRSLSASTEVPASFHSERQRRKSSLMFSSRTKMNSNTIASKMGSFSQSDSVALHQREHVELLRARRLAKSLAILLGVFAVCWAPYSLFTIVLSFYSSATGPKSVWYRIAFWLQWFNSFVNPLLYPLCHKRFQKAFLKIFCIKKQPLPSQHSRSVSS
Measurement Notes: Displacement of [3H]histamine from human recombinant histamine H4 receptor expressed in CHO cells coexpressing Ga15 by radioligand filtration binding assay
Format: cell-based
pKi: −log10 of the molar value.
Each entry gets 0.0 if its pKi stays under 7, and 1.0 if its pKi is 7 or above.

## Input Threshold query (pKi >= 7) on `CN1C[C@@H]2CN(C(=N)c3nc4c(F)c(F)ccc4[nH]3)C[C@@H]2C1`
## Output 1.0

## Input Threshold query (pKi >= 7) on `CCN1C[C@@H]2CN(C(=O)c3nc4cc(Cl)ccc4[nH]3)C[C@@H]2C1`
## Output 0.0

## Input Threshold query (pKi >= 7) on `CN1C[C@@H]2CN(C(=N)c3nc4ccccc4[nH]3)C[C@@H]2C1`
## Output 1.0

## Input Threshold query (pKi >= 7) on `Cc1c(F)ccc2nc(C(=N)N3C[C@H]4CN(C)C[C@H]4C3)[nH]c12`
## Output 1.0

## Input Threshold query (pKi >= 7) on `O=C(c1nc2cc(Cl)ccc2[nH]1)N1C[C@H]2CNC[C@H]2C1`
## Output 0.0

## Input Threshold query (pKi >= 7) on `Cc1c(F)ccc2nc(C(=O)N3C[C@H]4CN(C)C[C@H]4C3)[nH]c12`
## Output 1.0

## Input Threshold query (pKi >= 7) on `CN1CCN(C(=O)c2cc3cccnc3[nH]2)CC1`
## Output 0.0

## Input Threshold query (pKi >= 7) on `CN1CCN(C(=O)c2cn3cc(Cl)ccc3n2)CC1`
## Output 0.0

## Input Threshold query (pKi >= 7) on `CN1C[C@@H]2CN(C(=O)c3cc4cccnc4[nH]3)C[C@@H]2C1`
## Output 0.0

## Input Threshold query (pKi >= 7) on `CN1C[C@@H]2CN(C(=O)c3cc4ccc(Cl)nc4[nH]3)C[C@@H]2C1`
## Output 0.0

## Input Threshold query (pKi >= 7) on `CN1C[C@@H]2CN(C(=N)c3nc4cc(F)ccc4[nH]3)C[C@@H]2C1`
## Output 1.0

## Input Threshold query (pKi >= 7) on `CN1C[C@@H]2CN(C(=N)c3nc4cc(F)c(F)cc4[nH]3)C[C@@H]2C1`
## Output 1.0

## Input Threshold query (pKi >= 7) on `CN1CCN(C(=O)c2cn3ccncc3n2)CC1`
## Output 0.0

## Input Threshold query (pKi >= 7) on `CC(C)N1C[C@H]2CN(C(=O)c3nc4cc(Cl)ccc4[nH]3)C[C@H]2C1`
## Output 0.0
